- EXPERIMENTAL_SYSTEM: Tyrosine-protein phosphatase non-receptor type 1 (Homo sapiens)
- Sequence (P18031 whole entry): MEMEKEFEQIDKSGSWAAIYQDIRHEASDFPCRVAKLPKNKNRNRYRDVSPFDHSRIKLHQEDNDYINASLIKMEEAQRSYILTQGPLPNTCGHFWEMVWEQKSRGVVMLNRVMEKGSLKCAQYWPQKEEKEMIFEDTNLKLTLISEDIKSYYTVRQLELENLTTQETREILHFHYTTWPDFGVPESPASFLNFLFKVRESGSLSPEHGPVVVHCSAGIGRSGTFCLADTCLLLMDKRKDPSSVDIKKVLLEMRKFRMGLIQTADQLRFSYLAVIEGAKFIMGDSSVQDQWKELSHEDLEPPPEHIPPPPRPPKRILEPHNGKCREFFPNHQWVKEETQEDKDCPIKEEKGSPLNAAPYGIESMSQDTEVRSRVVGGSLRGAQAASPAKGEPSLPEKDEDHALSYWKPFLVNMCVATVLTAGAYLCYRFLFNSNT
- RUN_DESCRIPTION: Inhibition of human recombinant PTP1B using pNPP substrate at 37 degC measured after 30 mins
pIC50: −log10 of the molar value.
PROPERTY_LABEL: pIC50

COMPOUND: CCCCOc1cc(OC)c(/C=C2\SC(=O)N(C)C2=O)cc1Br
PROPERTY_LABEL: pIC50
MEAS_VALUE: 4.92

COMPOUND: C=CCN1C(=O)S/C(=C\c2cc(Br)c(OCCCC)cc2OC)C1=O
PROPERTY_LABEL: pIC50
MEAS_VALUE: 5.10

1 = C=CCc1cc(/C=C2\SC(=O)N(CC=C(C)C)C2=O)c(OC)cc1OC1CCCCO1 (stereo unspecified)
2 = COc1cc(O)c(Br)cc1/C=C1\SC(=O)NC1=O
3 = CCCCOc1cc(OC)c(/C=C2\SC(=O)N(Cc3ccccc3)C2=O)cc1Br
Place the items in sequence of falling pIC50. Form field (ranking): labels in requested order.
3, 2, 1

====

- EXPERIMENTAL_SYSTEM: Tyrosine-protein phosphatase non-receptor type 1 (Homo sapiens)
- Sequence (P18031 whole entry): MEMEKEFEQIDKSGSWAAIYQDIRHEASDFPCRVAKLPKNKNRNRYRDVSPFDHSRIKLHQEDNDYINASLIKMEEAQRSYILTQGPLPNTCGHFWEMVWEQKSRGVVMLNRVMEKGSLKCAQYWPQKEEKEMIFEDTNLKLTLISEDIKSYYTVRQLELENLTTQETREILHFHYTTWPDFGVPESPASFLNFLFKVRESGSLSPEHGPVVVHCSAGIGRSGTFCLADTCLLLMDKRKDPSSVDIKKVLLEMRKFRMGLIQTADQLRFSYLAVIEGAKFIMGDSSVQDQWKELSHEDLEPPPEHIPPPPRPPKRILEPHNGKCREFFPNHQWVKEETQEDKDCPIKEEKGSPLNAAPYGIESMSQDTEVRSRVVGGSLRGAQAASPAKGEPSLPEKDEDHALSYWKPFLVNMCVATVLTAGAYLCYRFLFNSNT
- RUN_DESCRIPTION: Inhibition of human recombinant PTP1B using pNPP substrate at 37 degC measured after 30 mins
PROPERTY_LABEL: IC50 (µM)

Record excerpt, results attached:
STRUCTURE: C=CCN1C(=O)S/C(=C\c2cc(Br)c(OCC=C(C)C)cc2OC)C1=O
MEAS_VALUE: 17
//
STRUCTURE: COc1cc(OCC=C(C)C)c(Br)cc1/C=C1\SC(=O)N(CC=C(C)C)C1=O
MEAS_VALUE: 10
//
STRUCTURE: COc1cc(OC)c(/C=C2\SC(=O)NC2=O)cc1Br
MEAS_VALUE: 14.2
//
STRUCTURE: C=CCc1cc(/C=C2\SC(=O)NC2=O)c(OC)cc1O
MEAS_VALUE: 29.3

P = COc1cc(OC)c(/C=C2\SC(=O)N(C)C2=O)cc1Br
Q = COc1cc(OCC=C(C)C)c(Br)cc1/C=C1\SC(=O)NC1=O
Which value of IC50 is smaller, the one for P or the one for Q ? Use the label to indicate which entry you chose.
Q
